B1: ZNF449 (parent)
chain: RIHSGEEPHKCPECGKRFLRSSDL

Variants of: B1
Test Method Notes: protein stability index of a GFP-peptide fusion (GPS, HEK-293T) (PSI 1-6); higher = more stable;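 further: lentivirally expressed fusions sorted by FACS into six bins by GFP to DsRed ratio, PSI derived from sequencing read proportions per bin multiplied by bin number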
Condition Details: c terminus: a fixed tail appended
Classification field: enter Yes for protein stability index values not below 3, No for values below it.

Mutant Designation: C11I
Group Label: Yes
--
Mutant Designation: K10D
Group Label: Yes
--
Mutant Designation: K10G
Group Label: Yes
--
Mutant Designation: G5E
Group Label: Yes
--
Mutant Designation: S21G
Group Label: Yes
--
Mutant Designation: F18M
Group Label: Yes
--
Mutant Designation: D23E
Group Label: No
--
Mutant Designation: L19V
Group Label: Yes
--
Mutant Designation: L19Y
Group Label: Yes
--
Mutant Designation: H3G
Group Label: No
--
Mutant Designation: G15N
Group Label: Yes
--
Mutant Designation: H9W
Group Label: No
--
Mutant Designation: L24M
Group Label: Yes
--
Mutant Designation: H3N
Group Label: Yes
--
Mutant Designation: K10L
Group Label: Yes
--
Mutant Designation: P12Y
Group Label: Yes
--
Mutant Designation: R1E
Group Label: Yes
--
Mutant Designation: L24I
Group Label: No
--
Mutant Designation: P12M
Group Label: Yes
--
Mutant Designation: G5P
Group Label: No
--
Mutant Designation: E13L
Group Label: Yes
--
Mutant Designation: D23A
Group Label: No
--
Mutant Designation: G5H
Group Label: Yes
--
Mutant Designation: H9K
Group Label: Yes
--
Mutant Designation: K16W
Group Label: No
--
Mutant Designation: F18I
Group Label: Yes
--
Mutant Designation: S4W
Group Label: No
--
Mutant Designation: D23K
Group Label: No
--
Mutant Designation: R1P
Group Label: Yes
--
Mutant Designation: E7Y
Group Label: No
--
Mutant Designation: E6V
Group Label: No
--
Mutant Designation: R17S
Group Label: Yes
--
Mutant Designation: S4A
Group Label: Yes
--
Mutant Designation: K10V
Group Label: Yes
--
Mutant Designation: H9C
Group Label: Yes
--
Mutant Designation: I2R
Group Label: Yes
--
Mutant Designation: L24P
Group Label: Yes
--
Mutant Designation: I2W
Group Label: Yes
--
Mutant Designation: I2E
Group Label: Yes
--
Mutant Designation: C14H
Group Label: Yes
--
Mutant Designation: C11T
Group Label: Yes
--
Mutant Designation: L19A
Group Label: Yes
--
Mutant Designation: P12H
Group Label: Yes
--
Mutant Designation: P12S
Group Label: Yes
